- System: HS 578T breast
- protocol: NCI tumour cell line growth inhibition, 48 h; in the data active = GI50 below about 0.43 µM; inactive = the rest
Outcome codes: active, inactive

[[record]]
molecule = "O=C(Nc1ccc(-n2ccc3c(NC(=O)c4ccccc4)nccc32)cc1)c1ccc(N2CCOCC2)c(C(F)(F)F)c1"
assigned_class = "inactive"

[[record]]
molecule = "COc1cc2c(cc1OC)-c1ncc3cc(OC)c(OC)c(OC)c3c1C2"
assigned_class = "inactive"

[[record]]
molecule = "COCC(=O)NC/C=C/c1ccc2ncnc(Nc3ccc(Oc4ccc(C)nc4)c(C)c3)c2c1"
assigned_class = "inactive"

[[record]]
molecule = "O=S(=O)(NCCNc1cc(-c2cn(-c3ccccc3)nc2-c2cccc(O)c2)ccn1)c1ccc(Br)cc1"
assigned_class = "inactive"

[[record]]
molecule = "COc1c2occc2cc2ccc(=O)oc12"
assigned_class = "inactive"

[[record]]
molecule = "NC(Cc1c[nH]c2cc(F)ccc12)C(=O)O (configuration not stated)"
assigned_class = "inactive"

[[record]]
molecule = "CC(=Nc1ccccc1)C1=C(O)C(Cc2ccc(F)cc2)NC1=O (configuration not stated)"
assigned_class = "inactive"

[[record]]
molecule = "CCN(CC)c1ccc(/C=N/NC(=O)c2ccccc2Nc2ccnc(C(F)(F)F)c2)c(O)c1"
assigned_class = "inactive"

[[record]]
molecule = "Cc1ccccc1C[P+](c1ccccc1)(c1ccccc1)c1ccccc1"
assigned_class = "inactive"

[[record]]
molecule = "Cc1ccc2c(c1)-c1oc(=O)c(-c3cc4ccccc4oc3=O)cc1C(O)O2 (configuration not stated)"
assigned_class = "inactive"

[[record]]
molecule = "Cc1ccc(-n2c3c(c4c(CN)c(O)ccc42)CCc2ccccc2C3=O)cc1"
assigned_class = "inactive"

[[record]]
molecule = "CCCC(=O)Nc1c(I)cc(I)c(CC(CC)C(=O)O)c1I (configuration not stated)"
assigned_class = "inactive"

[[record]]
molecule = "Clc1ccc(COC(Cn2ccnc2)c2ccc(Cl)cc2Cl)c(Cl)c1 (configuration not stated)"
assigned_class = "inactive"

[[record]]
molecule = "COc1cccc(NC(=O)c2ccc(NC3=C(Cl)C(=O)N(Cc4ccccc4)C3=O)cc2)c1"
assigned_class = "inactive"

[[record]]
molecule = "CN1CCN(c2ccc(-c3cccc(CN4CCOCC4)c3)cc2NC(=O)c2c[nH]c(=O)cc2C(F)(F)F)CC1"
assigned_class = "inactive"

[[record]]
molecule = "N#Cc1ccc(NC(=O)Nc2nc3ccc(OC(F)(F)F)cc3s2)cc1"
assigned_class = "inactive"

[[record]]
molecule = "COC1C(O)CC(OC2CC(OC3CC(O[C@@H]4C(=O)c5c(cc6cc(OC7CC(OC8CC(O)C(O)C(C)O8)C(O)C(C)O7)c(C)c(O)c6c5O)CC4[C@H](OC)[C@@H](O)C(C)=O)OC(C)C3O)OC(C)C2O)OC1C (some centres not stated)"
assigned_class = "active"


----------
- Test system: SF-539 CNS
- protocol: NCI tumour cell line growth inhibition, 48 h; in the data active means GI50 below about 0.43 µM; inactive means the rest
Outcome codes: active, inactive

[[record]]
compound = "CN1CCN(c2ccc(-c3cccc(CN4CCOCC4)c3)cc2NC(=O)c2c[nH]c(=O)cc2C(F)(F)F)CC1"
assigned_class = "inactive"

[[record]]
compound = "Cc1ccc2c(c1)-c1oc(=O)c(-c3cc4ccccc4oc3=O)cc1C(O)O2 (stereo unspecified)"
assigned_class = "inactive"

[[record]]
compound = "C[C@@H]1OC(=O)NN=C1c1ccc(-c2ccc(F)cc2)c(C(F)(F)F)c1"
assigned_class = "inactive"

[[record]]
compound = "CCCCCC(=C/c1ccccc1)/C=N/N=C(N)N"
assigned_class = "inactive"

[[record]]
compound = "CCN(CC)c1ccc(/C=N/NC(=O)c2ccccc2Nc2ccnc(C(F)(F)F)c2)c(O)c1"
assigned_class = "active"

[[record]]
compound = "COc1ccccc1N1CCN(CCCOc2ccc(C(=O)/C=C3/C(=O)Nc4ccccc43)cc2)CC1"
assigned_class = "inactive"


----------
Recorded log10 TGI, one value per entry.
- Tested on: RXF 393 renal
- protocol: NCI tumour cell line growth inhibition, 48 h
quantity name: log10 TGI (log10 of the value in µM)

[[record]]
compound = "CC1OC(OC2C[C@](O)(C(=O)CBr)Cc3c(O)c4c(c(O)c32)C(=O)c2ccccc2C4=O)C(F)C(O)C1O (stereo partly drawn)"
quantity_name = "log10 TGI"
readout_number = 1.55

[[record]]
compound = "CC(C)Cc1ccc(C(C)/C=C2\\CCC(CN3CCCCC3)C2=O)cc1 (stereo not drawn)"
quantity_name = "log10 TGI"
readout_number = 0.76

[[record]]
compound = "C=C(C1=CC(=O)C(C)(C)O1)[C@@H]1CC=C([C@@H]2CC[C@H]3[C@@]2(C)CC[C@H]2C(C)(C)C(=O)[C@H](OC(=O)CC(C)(O)CC(=O)O)C[C@]32C)[C@H](O)O1 (stereo partly drawn)"
quantity_name = "log10 TGI"
readout_number = 1.23

[[record]]
compound = "O=C(c1cccc2cc(O)ccc12)c1cn(CCN2CCOCC2)c2ccccc12"
quantity_name = "log10 TGI"
readout_number = 1.64

[[record]]
compound = "N#Cc1ccc(NC(=O)Nc2nc3ccc(OC(F)(F)F)cc3s2)cc1"
quantity_name = "log10 TGI"
readout_number = 0.87

[[record]]
compound = "C[C@H](CO)C1=CC(C#C[Si](C)(C)C)N(C(=O)Oc2ccccc2)c2ccccc21 (stereo partly drawn)"
quantity_name = "log10 TGI"
readout_number = 1.36

[[record]]
compound = "OC1(C2(c3ccc(Cl)cc3)CCCC2)c2ccccc2C2=NCCN21 (stereo not drawn)"
quantity_name = "log10 TGI"
readout_number = 0.98

[[record]]
compound = "COCC(=O)NC/C=C/c1ccc2ncnc(Nc3ccc(Oc4ccc(C)nc4)c(C)c3)c2c1"
quantity_name = "log10 TGI"
readout_number = 1.56

[[record]]
compound = "ClCCc1ccccc1CC1=NCCc2ccccc21"
quantity_name = "log10 TGI"
readout_number = 1.79

[[record]]
compound = "Nc1nc(Cl)c(C=O)c(NCC2(CO)CCC2)n1"
quantity_name = "log10 TGI"
readout_number = 1.70


----------
# TGI annotations
- Tested on: HT29 colon
- protocol: NCI tumour cell line growth inhibition, 48 h
quantity name: TGI (nM)

[[record]]
smiles_entry = "COC(=O)C1=C(O)c2cc3c(cc2[C@H](c2cc(OC)c(OC)c(OC)c2)C1)OCO3"
unit_abbreviation = "nM"
comparator = ">"
readout_number = 100000

[[record]]
smiles_entry = "CCCc1n(Cc2ccc3ccccc3n2)cc[n+]1Cc1ccc2ccccc2c1"
unit_abbreviation = "nM"
comparator = "="
readout_number = 2070

[[record]]
smiles_entry = "CCC(C)(C)NS(=O)(=O)c1ccccc1"
unit_abbreviation = "nM"
comparator = ">"
readout_number = 100000

[[record]]
smiles_entry = "COc1ccc(C[C@H]2NC[C@H](O)[C@H]2OC(C)=O)cc1"
unit_abbreviation = "nM"
comparator = "="
readout_number = 179

[[record]]
smiles_entry = "CCCCCC(=C/c1ccccc1)/C=N/N=C(N)N"
unit_abbreviation = "nM"
comparator = "="
readout_number = 3270


----------
- Tested on: U251 CNS
Outcomes: true (1) for active, false (0) for inactive

[[record]]
molecule = "COc1c(N2CCN(CN3C(=O)C(=O)c4ccccc43)C(C)C2)c(F)cc2c(=O)c(C(=O)O)cn(C3CC3)c12 (stereo not given)"
assigned_class = "false (0)"

[[record]]
molecule = "O=C1c2ccccc2-c2c1c1ccc([N+](=O)[O-])cc1c(=O)n2CCCn1ccnc1"
assigned_class = "true (1)"

[[record]]
molecule = "NC(Cc1c[nH]c2cc(F)ccc12)C(=O)O (stereo not given)"
assigned_class = "false (0)"

[[record]]
molecule = "COc1c(Cl)[c]([Hg][O]C(C)=O)c(NCC(C)=O)c(OC)[c]1[Hg][O]C(C)=O"
assigned_class = "false (0)"

[[record]]
molecule = "COc1ccccc1N1CCN(CCCOc2ccc(C(=O)/C=C3/C(=O)Nc4ccccc43)cc2)CC1"
assigned_class = "false (0)"


----------
- Tested on: SK-MEL-28 melanoma
- protocol: NCI tumour cell line growth inhibition, 48 h
quantity name: TGI (µM)

[[record]]
compound = "CN[C@H]1CC[C@]23C[C@]24CC[C@]2(C)[C@@H]([C@H](C)N(C)C)CC[C@@]2(C)[C@@H]4CC[C@H]3C1(C)C"
test_target = "SK-MEL-28 melanoma"
comparator = "="
readout_number = 25.8

[[record]]
compound = "Fc1ccc2c(c1)cc1ccc3cccc4ccc2c1c34"
test_target = "SK-MEL-28 melanoma"
comparator = ">"
readout_number = 100

[[record]]
compound = "COc1ccc(NS(=O)(=O)c2ccc(N=C3C=C(Nc4ccc(S(=O)(=O)Nc5ccc(OC)nn5)cc4)C(=O)c4ccccc43)cc2)nn1"
test_target = "SK-MEL-28 melanoma"
comparator = "="
readout_number = 31.4

[[record]]
compound = "N#Cc1ccc(NC(=O)Nc2nc3ccc(OC(F)(F)F)cc3s2)cc1"
test_target = "SK-MEL-28 melanoma"
comparator = "="
readout_number = 12.3

[[record]]
compound = "CC(C)C[C@H](NC(=O)CCc1cccc2ccccc12)B(O)O"
test_target = "SK-MEL-28 melanoma"
comparator = "="
readout_number = 4.05

[[record]]
compound = "CC(=O)OCCCCn1cnc2c(Cl)nc(Nc3ccccc3)nc21"
test_target = "SK-MEL-28 melanoma"
comparator = ">"
readout_number = 100

[[record]]
compound = "COc1ccc2c(c1)OC1c3ccccc3OCC21 (centres undefined)"
test_target = "SK-MEL-28 melanoma"
comparator = ">"
readout_number = 100

[[record]]
compound = "O=c1c(-c2nc3ccccc3[nH]2)cc2ccccc2n1Cc1cn(Cc2ccccc2Cl)nn1"
test_target = "SK-MEL-28 melanoma"
comparator = "="
readout_number = 3.35

[[record]]
compound = "CS(=O)(=O)CCC(N)P(=O)(O)O (centres undefined)"
test_target = "SK-MEL-28 melanoma"
comparator = ">"
readout_number = 100

[[record]]
compound = "C(#C[C@@]12CCC[C@@H]1N(Cc1ccccc1)CO2)c1ccc2c(c1)OCO2"
test_target = "SK-MEL-28 melanoma"
comparator = ">"
readout_number = 100

[[record]]
compound = "OC[C@@H](O)[C@H](O)[C@@H](O)/C=N/Nc1ccc(Cl)nn1"
test_target = "SK-MEL-28 melanoma"
comparator = ">"
readout_number = 100

[[record]]
compound = "COC1C(O)CC(OC2CC(OC3CC(O[C@@H]4C(=O)c5c(cc6cc(OC7CC(OC8CC(O)C(O)C(C)O8)C(O)C(C)O7)c(C)c(O)c6c5O)CC4[C@H](OC)[C@@H](O)C(C)=O)OC(C)C3O)OC(C)C2O)OC1C (some centres undefined)"
test_target = "SK-MEL-28 melanoma"
comparator = "="
readout_number = 0.396

[[record]]
compound = "CC1(C)CC[C@]2(C(=O)O)CC[C@]3(C)C(=CC[C@@H]4[C@@]5(C)CC[C@H](OC6OC(CO)C(O)C(O)C6O)C(C)(C)[C@@H]5CC[C@]43C)[C@@H]2C1 (some centres undefined)"
test_target = "SK-MEL-28 melanoma"
comparator = "="
readout_number = 3.69

[[record]]
compound = "N.N.NCCCCCN.O=C([O-])CC(=O)[O-].O=C([O-])CC(=O)[O-].[Pt+4].[Pt+4]"
test_target = "SK-MEL-28 melanoma"
comparator = ">"
readout_number = 100

[[record]]
compound = "O=C(Nc1ccc(N2CCNCC2)cn1)c1[nH]ncc1Nc1ncnc2sccc12"
test_target = "SK-MEL-28 melanoma"
comparator = "="
readout_number = 3.83

[[record]]
compound = "NS(=O)(=O)c1nnc(NC(=O)/C=C/C(=O)O)s1"
test_target = "SK-MEL-28 melanoma"
comparator = ">"
readout_number = 100

[[record]]
compound = "CCOC(=O)/C=C/c1c[nH]c(=O)[nH]c1=O"
test_target = "SK-MEL-28 melanoma"
comparator = ">"
readout_number = 75

[[record]]
compound = "COc1cc(=O)oc(/C=C/C=C/C=C/C(C)=C\\C2(C)OC(C)C(C)(O)C2O)c1C (centres undefined)"
test_target = "SK-MEL-28 melanoma"
comparator = ">"
readout_number = 100

[[record]]
compound = "C(/C=C/Nc1ccc(-c2ccccc2)cc1)=Nc1ccc(-c2ccccc2)cc1"
test_target = "SK-MEL-28 melanoma"
comparator = ">"
readout_number = 100

